Target or system: human recombinant ghrelin receptor (GHS-R1a) (Homo sapiens, UniProt Q92847)
Construct: host or cells: CHO-K1
Sequence (Q92847 whole entry): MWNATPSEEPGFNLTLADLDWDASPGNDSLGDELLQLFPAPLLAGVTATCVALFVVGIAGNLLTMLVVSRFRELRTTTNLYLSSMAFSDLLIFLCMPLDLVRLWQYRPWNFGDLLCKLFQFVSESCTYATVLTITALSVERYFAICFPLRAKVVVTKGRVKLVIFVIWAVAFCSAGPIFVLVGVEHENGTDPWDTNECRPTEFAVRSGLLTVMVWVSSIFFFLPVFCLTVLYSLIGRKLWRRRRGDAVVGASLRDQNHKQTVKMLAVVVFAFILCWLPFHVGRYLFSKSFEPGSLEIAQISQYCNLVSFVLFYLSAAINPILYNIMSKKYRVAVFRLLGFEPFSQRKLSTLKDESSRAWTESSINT
Measurement protocol: hGHS-R1a Ca assay (Fluo-4 calcium assay in CHO-K1 cells)
Format: cell-based
Condition summary: CHO-K1 cells expressing human GHS-R1a; agonist dose response up to 30 μM
In this section we review reported EC50 values for a set of compounds.
Could you give the number and then its unit, please?

Compound: CCC(N)(CC)C(=O)N[C@H](COCc1ccccc1)C(=O)N1CCC[C@@]2(C1)C(=O)N(C)C[C@H]2c1ccccc1
Target or system: human recombinant ghrelin receptor (GHS-R1a) (Homo sapiens, UniProt Q92847)
EC50: 0.0054 µM
--
Compound: Cc1ccc(C2CN(C)C(=O)C23CCCN(C(=O)[C@@H](COCc2ccccc2)NC(=O)C(C)(C)N)C3)cc1 (single isomer, unassigned)
Target or system: human recombinant ghrelin receptor (GHS-R1a) (Homo sapiens, UniProt Q92847)
EC50: 0.00011 µM
--
Compound: CN1CC(c2ccc(F)cc2)C2(CCCN(C(=O)[C@@H](Cc3c[nH]c4ccccc34)NC(=O)C(C)(C)N)C2)C1=O (single isomer, unassigned)
Target or system: human recombinant ghrelin receptor (GHS-R1a) (Homo sapiens, UniProt Q92847)
EC50: 0.0003 µM
--
Compound: CN1CC(c2ccccc2)C2(CCCN(C(=O)[C@@H](COCc3ccccc3)NC(=O)C(C)(C)N)C2)C1=O (single isomer, unassigned) [Example 1.20]
Target or system: human recombinant ghrelin receptor (GHS-R1a) (Homo sapiens, UniProt Q92847)
EC50: 0.0016 µM

Entry CN1C(=O)C2(CCCN(C(=O)[C@@H](COCc3ccccc3)NC(=O)C(C)(C)N)C2)C1c1ccccc1 (single isomer, unassigned) , EC50 reported as 0.0011 µM

Entry CN(C)C(=O)CN1CC(c2ccccc2)C2(CCCN(C(=O)[C@@H](COCc3ccccc3)NC(=O)C(C)(C)N)C2)C1=O (single isomer, unassigned) , EC50 reported as 0.0005 µM

###

Target or system: human recombinant ghrelin receptor (GHS-R1a) (Homo sapiens, UniProt Q92847)
Construct: host or cells: CHO-K1
Measurement protocol: hGHS-R1a Ca assay (Fluo-4 calcium assay in CHO-K1 cells)
Format: cell-based
Condition summary: CHO-K1 cells expressing human GHS-R1a; agonist dose response up to 30 μM
In this section we review reported EC50 values for a set of compounds.
Value expressed in µM; do not type the unit.

// below: answered compounds
Compound: COc1ccc(C2CN(C)C(=O)C23CCCN(C(=O)[C@@H](COCc2ccccc2)NC(=O)C(C)(C)N)C3)cc1 (stereo partly drawn) [Example 1.74]
Observed property: EC50
Unit of measurement: µM
Readout number: 0.0054
//
Compound: CN1C[C@H](c2ccccc2)[C@]2(CCCN(C(=O)[C@@H](COCc3ccccc3)NC(=O)C(C)(C)N)C2)C1=O (single isomer, unassigned) [Example 1.0(i)]
Observed property: EC50
Unit of measurement: µM
Readout number: 0.0023

From here, focus on the item given below.
Entry CC(C)N1CC(c2ccc(F)cc2)C2(CCCN(C(=O)[C@@H](Cc3cn(C)c4ccccc34)NC(=O)C(C)(C)N)C2)C1=O (single isomer, unassigned) [Example 1.15] , EC50 reported as 0.0016
